List of pIC50 values.
Target: UniProt P28336
Sequence (P28336 whole entry): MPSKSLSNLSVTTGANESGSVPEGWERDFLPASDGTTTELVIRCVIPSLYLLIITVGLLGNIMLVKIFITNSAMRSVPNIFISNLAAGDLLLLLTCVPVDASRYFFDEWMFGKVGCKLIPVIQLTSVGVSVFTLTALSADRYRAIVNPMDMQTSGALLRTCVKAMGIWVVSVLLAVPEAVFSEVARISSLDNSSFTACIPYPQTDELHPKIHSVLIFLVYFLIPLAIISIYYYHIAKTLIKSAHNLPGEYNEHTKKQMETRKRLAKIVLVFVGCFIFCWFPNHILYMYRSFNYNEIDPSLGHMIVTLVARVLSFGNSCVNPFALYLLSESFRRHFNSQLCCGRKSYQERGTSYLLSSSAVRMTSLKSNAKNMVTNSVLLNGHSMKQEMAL
Assay: Whole cell radioligand binding, hNMB-receptor transfected Balb 3T3 cells
Conditions: IC50 hNMB-R Balb-3T3, hNMB-receptor transfected Balb 3T3 cells; 125I-[D-Tyr0]NMB, 1 h, 22°C; mean ± S.E.
pIC50 is a log-scale quantity: -log10 of the concentration expressed in molar.

[
  {
    "molecule": "CC(Cc1c[nH]c2ccccc12)(NC(=O)Nc1ccc([N+](=O)[O-])cc1)C(=O)NCC1(c2ccccn2)CCCCC1 (stereo not drawn) [Peptide 34, reference compound]",
    "pIC50": 9.29
  }
]

Reported pIC50 of CCCCNC(=O)[C@H](CC(C)C)NC(=O)[C@H](Cc1c[nH]cn1)NC(=O)CNC(=O)[C@@H](NC(=O)[C@H](C)NC(=O)[C@H](Cc1c[nH]c2ccccc12)NC(=O)[C@H](CCC(N)=O)NC(=O)[C@H](N)Cc1ccccc1)C(C)C [Peptide 14, [D-Phe^6]Bn(6-13)Butylamide (BA)] : 5.51

====

Overview of recorded IC50 for various compounds
Target: hBRS-3 receptor (Homo sapiens)
Sequence (P32247 1-399): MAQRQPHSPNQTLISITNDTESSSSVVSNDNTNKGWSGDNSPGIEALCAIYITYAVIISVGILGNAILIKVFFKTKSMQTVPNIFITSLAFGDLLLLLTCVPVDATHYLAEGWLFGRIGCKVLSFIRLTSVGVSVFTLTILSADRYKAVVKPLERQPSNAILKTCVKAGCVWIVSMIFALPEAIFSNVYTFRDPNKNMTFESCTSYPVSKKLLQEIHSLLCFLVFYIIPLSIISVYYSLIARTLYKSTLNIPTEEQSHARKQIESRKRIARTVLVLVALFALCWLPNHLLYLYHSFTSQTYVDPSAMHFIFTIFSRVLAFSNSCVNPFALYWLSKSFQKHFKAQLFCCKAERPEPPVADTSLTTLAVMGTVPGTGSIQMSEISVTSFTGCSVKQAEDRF
Experiment: Whole cell radioligand binding, hBRS-3 transfected Balb 3T3 cells
Square brackets hold non-standard residues; d marks the D form. Peptide text beside a SMILES is read from it. dPhe(F5) = N[C@H](Cc1c(F)c(F)c(F)c(F)c1F)C(=O)O

[
  {
    "compound": "CCCCCCNC(=O)[C@H](CC(C)C)NC(=O)[C@H](Cc1cnc[nH]1)NC(=O)CNC(=O)[C@@H](NC(=O)[C@H](C)NC(=O)[C@H](Cc1c[nH]c2ccccc12)NC(=O)[C@H](CCC(N)=O)NC(=O)[C@H](N)Cc1ccccc1)C(C)C [Peptide 15, [D-Phe^6]Bn-(6-13)Hexylamide]",
    "IC50": "3.25 µM"
  },
  {
    "compound": "CCNC(=O)[C@H](CC(C)C)NC(=O)[C@H](Cc1c[nH]cn1)NC(=O)CNC(=O)[C@@H](NC(=O)[C@H](C)NC(=O)[C@H](Cc1c[nH]c2ccccc12)NC(=O)[C@H](CCC(N)=O)NC(=O)[C@H](N)Cc1ccccc1)C(C)C [Peptide 10, [D-Phe^6]Bn(6-13)Ethylamide]",
    "IC50": "> 10 µM"
  },
  {
    "compound": "CC(Cc1c[nH]c2ccccc12)(NC(=O)Nc1ccc([N+](=O)[O-])cc1)C(=O)NCC1(c2ccccn2)CCCCC1 (stereo not shown) [Peptide 34, reference compound]",
    "IC50": "> 10 µM"
  }
]

Next, consider the following compound.
The value of IC50 measured for the compound COC(=O)[C@H]1CCCN1C(=O)[C@H](Cc1c[nH]cn1)NC(=O)[C@@H](C)NC(=O)[C@@H](NC(=O)[C@H](C)NC(=O)[C@H](Cc1c[nH]c2ccccc12)NC(=O)[C@H](Cc1c[nH]cn1)NC(=O)[C@H](N)Cc1c(F)c(F)c(F)c(F)c1F)C(C)C [Peptide 19] (H-[dPhe(F5)]HWAV[dA]H[dP]-OMe) turned out to be > 10 µM

====

Molecular target: hGRP-receptor (Homo sapiens, UniProt P30550)
Sequence (P30550 whole entry): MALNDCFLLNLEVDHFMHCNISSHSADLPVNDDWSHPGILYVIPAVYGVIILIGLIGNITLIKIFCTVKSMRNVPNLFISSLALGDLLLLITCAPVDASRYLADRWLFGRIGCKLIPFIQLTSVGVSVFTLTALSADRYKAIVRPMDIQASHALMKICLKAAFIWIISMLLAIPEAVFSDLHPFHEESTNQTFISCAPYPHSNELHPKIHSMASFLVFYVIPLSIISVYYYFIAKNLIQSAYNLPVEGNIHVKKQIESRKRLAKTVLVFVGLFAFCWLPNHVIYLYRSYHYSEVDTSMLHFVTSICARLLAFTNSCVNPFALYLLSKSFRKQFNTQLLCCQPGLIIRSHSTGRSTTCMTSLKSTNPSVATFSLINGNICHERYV
Assay: Whole cell radioligand binding, HuTu-80 cells
Square brackets hold non-standard residues; d marks the D form. Peptide text beside a SMILES is read from it. dPhe(F5) = N[C@H](Cc1c(F)c(F)c(F)c(F)c1F)C(=O)O
measured-attribute: pIC50
Scale explanation: pIC50 corresponds to minus log10 of a concentration expressed in moles per litre.

Before answering, review these 4 worked examples.
[
  {
    "compound": "COC(=O)[C@H](CC(C)C)NC(=O)[C@H](Cc1c[nH]cn1)NC(=O)[C@@H](C)NC(=O)[C@@H](NC(=O)[C@H](C)NC(=O)[C@H](Cc1c[nH]c2ccccc12)NC(=O)[C@H](CCC(N)=O)NC(=O)[C@H](N)Cc1c(F)c(F)c(F)c(F)c1F)C(C)C [Peptide 18] (H-[dPhe(F5)]QWAV[dA]HL-OMe)",
    "pIC50": 9.92
  },
  {
    "compound": "CCCNC(=O)[C@H](CC(C)C)NC(=O)[C@H](Cc1c[nH]cn1)NC(=O)CNC(=O)[C@@H](NC(=O)[C@H](C)NC(=O)[C@H](Cc1c[nH]c2ccccc12)NC(=O)[C@H](CCC(N)=O)NC(=O)[C@H](N)Cc1ccc(O)cc1)C(C)C [Peptide 12, [D-Tyr^6]Bn-(6-13)Propylamide (PA)]",
    "pIC50": 8.85
  },
  {
    "compound": "CCCNC(=O)[C@H](CC(C)C)NC(=O)[C@H](Cc1c[nH]cn1)NC(=O)CNC(=O)[C@@H](NC(=O)[C@H](C)NC(=O)[C@H](Cc1c[nH]c2ccccc12)NC(=O)[C@H](CCC(N)=O)NC(=O)[C@H](N)Cc1ccccc1)C(C)C [Peptide 11, [D-Phe^6-Bn](6-13)Propylamide (PA)]",
    "pIC50": 9.41
  },
  {
    "compound": "CSCC[C@H](NC(=O)[C@H](CC(C)C)NC(=O)[C@@H](Cc1ccccc1)NC(=O)CNC(=O)[C@@H](NC(=O)[C@H](C)NC(=O)[C@H](Cc1c[nH]c2ccccc12)NC(=O)[C@H](CCC(N)=O)NC(=O)[C@H](CC(N)=O)NC(=O)CNC(=O)[C@H](Cc1ccc(O)cc1)NC(=O)[C@H](CCCNC(=N)N)NC(=O)[C@H](CCC(N)=O)NC(=O)[C@@H]1CCC(=O)N1)C(C)C)C(N)=O [Peptide 2, [Tyr^4, D-Phe^12]Bn]",
    "pIC50": 6.04
  }
]

Moving on to another compound below.
Sure, the documented pIC50 for CC(C)C[C@H](NC(=O)[C@H](CC(C)C)NC(=O)[C@@H](Cc1c[nH]c2ccccc12)NC(=O)[C@H](Cc1ccccc1)NC(=O)[C@@H](Cc1c[nH]c2ccccc12)NC(=O)[C@H](CCC(N)=O)NC(=O)[C@H](CCC(N)=O)NC(=O)[C@@H]1CCCN1C(=O)[C@H](CCCCN)NC(=O)[C@@H]1CCCN1C(=O)[C@H](N)CCCN=C(N)N)C(N)=O [Peptide 3, [D-Arg^1, D-Trp^7,9, Leu^11]SP] (H-[dR]PKPQQ[dW]F[dW]LL-NH2) is 5.75

====

Target: hBRS-3 receptor (Homo sapiens)
Assay: Whole cell radioligand binding, hBRS-3 transfected Balb 3T3 cells
pIC50: −log10 of the molar value. Square brackets hold non-standard residues; d marks the D form. Peptide text beside a SMILES is read from it.
measured-attribute: pIC50

Reported pIC50 of CC(C)C[C@H](NC(=O)[C@H](CC(C)C)NC(=O)[C@@H](Cc1c[nH]c2ccccc12)NC(=O)[C@H](Cc1ccccc1)NC(=O)[C@@H](Cc1c[nH]c2ccccc12)NC(=O)[C@H](CCC(N)=O)NC(=O)[C@H](CCC(N)=O)NC(=O)[C@@H]1CCCN1C(=O)[C@H](CCCCN)NC(=O)[C@@H]1CCCN1C(=O)[C@H](N)CCCN=C(N)N)C(N)=O [Peptide 3, [D-Arg^1, D-Trp^7,9, Leu^11]SP] (H-[dR]PKPQQ[dW]F[dW]LL-NH2) : < 5.00

====

Target: hGRP-receptor (Homo sapiens, UniProt P30550)
Assay: [3H]inositol phosphate generation, HuTu-80 cells
Assay type: cell-based
Square brackets hold non-standard residues; d marks the D form. Peptide text beside a SMILES is read from it.
Lab note - cut at 300 nM for IC50: yes if strictly below, no if not.

As a guide, the following entries are already answered.
[
  {
    "compound": "CCCNC(=O)[C@H](CC(C)C)NC(=O)[C@H](Cc1c[nH]cn1)NC(=O)CNC(=O)[C@@H](NC(=O)[C@H](C)NC(=O)[C@H](Cc1c[nH]c2ccccc12)NC(=O)[C@H](CCC(N)=O)NC(=O)[C@H](N)Cc1ccc(O)cc1)C(C)C [Peptide 12, [D-Tyr^6]Bn-(6-13)Propylamide (PA)]",
    "answer-label": "yes"
  },
  {
    "compound": "CCOC(=O)[C@H](CC(C)C)NC(=O)[C@H](Cc1c[nH]cn1)NC(=O)CNC(=O)[C@@H](NC(=O)[C@H](C)NC(=O)[C@H](Cc1c[nH]c2ccccc12)NC(=O)[C@H](CCC(N)=O)NC(=O)[C@H](N)Cc1ccccc1)C(C)C [Peptide 20, [D-Phe^6]Bn-(6-13)Ethyl ester]",
    "answer-label": "yes"
  },
  {
    "compound": "CC(C)C[C@H](NC(=O)[C@H](Cc1cnc[nH]1)NC(=O)CNC(=O)[C@@H](NC(=O)[C@H](C)NC(=O)[C@H](Cc1c[nH]c2ccccc12)NC(=O)[C@H](CCC(N)=O)NC(=O)[C@H](N)Cc1ccccc1)C(C)C)C(N)=O [Peptide 8, [D-Phe^6]Bn(6-13)NH2]",
    "answer-label": "no"
  },
  {
    "compound": "CC(Cc1c[nH]c2ccccc12)(NC(=O)Nc1ccc([N+](=O)[O-])cc1)C(=O)NCC1(c2ccccn2)CCCCC1 (centres unmarked) [Peptide 34, reference compound]",
    "answer-label": "no"
  }
]

Query: Hello, is IC50 of the following compound strictly smaller than 300 nM? CCCCNC(=O)[C@H](CC(C)C)NC(=O)[C@H](Cc1c[nH]cn1)NC(=O)CNC(=O)[C@@H](NC(=O)[C@H](C)NC(=O)[C@H](Cc1c[nH]c2ccccc12)NC(=O)[C@H](CCC(N)=O)NC(=O)[C@H](N)Cc1ccccc1)C(C)C [Peptide 14, [D-Phe^6]Bn(6-13)Butylamide (BA)]
Response: yes

Query: Does CSCC[C@H](NC(=O)[C@@H](Cc1c[nH]c2ccccc12)NC(=O)[C@@H](Cc1c[nH]c2ccccc12)NC(=O)[C@H](Cc1ccccc1)NC(=O)[C@@H](Cc1c[nH]c2ccccc12)NC(=O)[C@H](CCC(N)=O)NC(=O)[C@H](CCC(N)=O)NC(=O)[C@H]1CCCN1)C(N)=O [Peptide 4, [D-Pro^4, D-Trp^7,9,10]SP-(4-11)] (H-[dP]QQ[dW]F[dW][dW]M-NH2) have IC50 strictly under 300 nM?
Response: no

Query: Does the reported IC50 of CCNC(=O)[C@H](CC(C)C)NC(=O)[C@H](Cc1c[nH]cn1)NC(=O)CNC(=O)[C@@H](NC(=O)[C@H](C)NC(=O)[C@H](Cc1c[nH]c2ccccc12)NC(=O)[C@H](CCC(N)=O)NC(=O)[C@H](N)Cc1ccccc1)C(C)C [Peptide 10, [D-Phe^6]Bn(6-13)Ethylamide] stay below 300 nM?
Response: yes

Query: Regarding COc1ccc(C2(CNC(=O)C(C)(Cc3c[nH]c4ccccc34)NC(=O)Nc3ccc([N+](=O)[O-])cc3)CCCCC2)nc1 (centres unmarked) [Peptide 33, reference compound] , kindly confirm whether its IC50 is beneath 300 nM.
Response: yes
